Would you kindly list IC50 for each of these compounds?
tested on: 817829-284-R-J1-PDC complex spheroid viability; experiment: Anticancer human tumor 817829-284-R-J1-PDC patient-derived colon adenocarcinoma cell line growth inhibition [POLQ]; conditions: curve of first compound; second compound 0.0316 µM
Answers are plain numbers, in nM.

[ask] # IC50 lookup, item CCCS(=O)(=O)Nc1ccc(F)c(C(=O)c2c[nH]c3ncc(-c4ccc(Cl)cc4)cc23)c1F + Cc1cccc(N(C)C(=O)C2C(O)CCN2c2nc(C)cc(C(F)(F)F)c2C#N)c1
[reply] 2980

Let's switch to this compound now.
[ask] # IC50 lookup, item COc1ccc([C@@H](O)c2cc(-c3ncnc4cc(N5CCOCC5)ccc34)c(F)cc2Cl)nn1 + Nc1ccc(C#CCN(C(=O)Cc2ncc(C(F)(F)F)cc2C(F)(F)F)c2ccc(F)cc2)nn1
[reply] 1190

----------
Would you kindly list pIC50 for each of these compounds?
tested on: 817829-284-R-J1-PDC complex spheroid viability; test: Anticancer human tumor 817829-284-R-J1-PDC cell line growth inhibition [POLQ]; conditions: curve of first compound; second compound 1 µM;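 note: spheroids exposed to compounds for 7 days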
Give bare numbers, as −log10 of the molar value.

The cases that follow already have their pIC50 on record.
[ask] # pIC50 lookup, item O=C(Nc1ccc(O)c(NS(=O)(=O)c2ccc(F)cc2)c1)c1ccc(-c2ccccc2)cc1 + Nc1ccc(C#CCN(C(=O)Cc2ncc(C(F)(F)F)cc2C(F)(F)F)c2ccc(F)cc2)nn1
[reply] 5.11

[ask] # pIC50 lookup, item C=CCn1c(=O)c2cnc(Nc3ccc(N4CCN(C)CC4)cc3)nc2n1-c1cccc(C(C)(C)O)n1 + COC1C(OC(N)=O)C(O)C(Oc2ccc3c(O)c(NC(=O)c4ccc(O)c(CC=C(C)C)c4)c(=O)oc3c2C)OC1(C)C
[reply] 6.72

[ask] # pIC50 lookup, item CC[C@@]1(O)C(=O)OCc2c1cc1n(c2=O)Cc2cc3c(CN(C)C)c(O)ccc3nc2-1 + Cc1cccc(N(C)C(=O)C2C(O)CCN2c2nc(C)cc(C(F)(F)F)c2C#N)c1
[reply] 8.16

For each of the items listed, what is its pIC50?
1. O=C(c1cc(Cc2n[nH]c(=O)c3ccccc23)ccc1F)N1CCN(C(=O)C2CC2)CC1 + Nc1ccc(C#CCN(C(=O)Cc2ncc(C(F)(F)F)cc2C(F)(F)F)c2ccc(F)cc2)nn1
2. CC[C@@]1(O)C(=O)OCc2c1cc1n(c2=O)Cc2cc3c(CN(C)C)c(O)ccc3nc2-1 + Nc1ccc(C#CCN(C(=O)Cc2ncc(C(F)(F)F)cc2C(F)(F)F)c2ccc(F)cc2)nn1
3. O=c1[nH]cc(F)c(=O)[nH]1 + COC1C(OC(N)=O)C(O)C(Oc2ccc3c(O)c(NC(=O)c4ccc(O)c(CC=C(C)C)c4)c(=O)oc3c2C)OC1(C)C
4. C=CCn1c(=O)c2cnc(Nc3ccc(N4CCN(C)CC4)cc3)nc2n1-c1cccc(C(C)(C)O)n1 + Cc1cccc(N(C)C(=O)C2C(O)CCN2c2nc(C)cc(C(F)(F)F)c2C#N)c1
5. COc1cccc(OCCCN)c1-c1cc(Nc2cnc(C#N)cn2)n[nH]1 + Cc1cccc(N(C)C(=O)C2C(O)CCN2c2nc(C)cc(C(F)(F)F)c2C#N)c1

[reply]
1: 5.34; 2: 8.05; 3: 5.53; 4: 6.63; 5: 8.28

----------
Would you kindly list IC50 for each of these compounds?
system: 817829-284-R-J1-PDC complex spheroid viability; assay: Anticancer human tumor 817829-284-R-J1-PDC cell line growth inhibition [POLQ]; conditions: curve of first compound; second compound 3.16 µM;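 note: spheroids exposed to compounds for 7 days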
One number for each entry, in µM.

The cases that follow already have their IC50 on record.
[ask] # IC50 lookup, item CC(C)n1c(=O)n(C)c2cnc3cc(F)c(-c4ccc(OCCCN5CCCCC5)nc4)cc3c21 + COC1C(OC(N)=O)C(O)C(Oc2ccc3c(O)c(NC(=O)c4ccc(O)c(CC=C(C)C)c4)c(=O)oc3c2C)OC1(C)C
[reply] 4.97

[ask] # IC50 lookup, item C=CCn1c(=O)c2cnc(Nc3ccc(N4CCN(C)CC4)cc3)nc2n1-c1cccc(C(C)(C)O)n1 + COC1C(OC(N)=O)C(O)C(Oc2ccc3c(O)c(NC(=O)c4ccc(O)c(CC=C(C)C)c4)c(=O)oc3c2C)OC1(C)C
[reply] 0.176

[ask] # IC50 lookup, item O=C(c1cc(Cc2n[nH]c(=O)c3ccccc23)ccc1F)N1CCN(C(=O)C2CC2)CC1 + COC1C(OC(N)=O)C(O)C(Oc2ccc3c(O)c(NC(=O)c4ccc(O)c(CC=C(C)C)c4)c(=O)oc3c2C)OC1(C)C
[reply] 3.83

---
[ask] # IC50 lookup, item CC1COCCN1c1cc(C2(S(C)(=N)=O)CC2)nc(-c2ccnc3[nH]ccc23)n1 (stereo not given) + Nc1ccc(C#CCN(C(=O)Cc2ncc(C(F)(F)F)cc2C(F)(F)F)c2ccc(F)cc2)nn1
[reply] 0.471

----------
test system: 817829-284-R-J1-PDC complex spheroid viability; assay: Anticancer human tumor 817829-284-R-J1-PDC cell line growth inhibition [POLQ]; settings: second compound 0.316 µM; first compound 0.316 µM; stronger effect = lower value;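 note: spheroids exposed to compounds for 7 days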;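 for viability, T/C: 100% = DMSO vehicle-treated spheroids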
value_type: viability, T/C (%)
Numbers only, in %.

[ask] # viability, T/C lookup, item CCc1c2c(nc3ccc(O)cc13)-c1cc3c(c(=O)n1C2)COC(=O)[C@]3(O)CC + Nc1ccc(C#CCN(C(=O)Cc2ncc(C(F)(F)F)cc2C(F)(F)F)c2ccc(F)cc2)nn1
[reply] 4.9

[ask] # viability, T/C lookup, item C#Cc1c(F)ccc2cc(O)cc(-c3ncc4c(N5CC6CCC(C5)N6)nc(OCC56CCCN5CC(F)C6)nc4c3F)c12 (stereo not given) + COC1C(OC(N)=O)C(O)C(Oc2ccc3c(O)c(NC(=O)c4ccc(O)c(CC=C(C)C)c4)c(=O)oc3c2C)OC1(C)C
[reply] 87.5

[ask] # viability, T/C lookup, item CCCS(=O)(=O)Nc1ccc(F)c(C(=O)c2c[nH]c3ncc(-c4ccc(Cl)cc4)cc23)c1F + Nc1ccc(C#CCN(C(=O)Cc2ncc(C(F)(F)F)cc2C(F)(F)F)c2ccc(F)cc2)nn1
[reply] 83.2

[ask] # viability, T/C lookup, item CCc1cc2c(N3CCc4c(cc(Cn5ccnc5)cc4-c4cn(C)nc4C(F)(F)F)C3=O)ccnc2c(OC)n1 + Cc1cccc(N(C)C(=O)C2C(O)CCN2c2nc(C)cc(C(F)(F)F)c2C#N)c1
[reply] 76.9

For each of the items listed, what is its viability, T/C?
1. CCCS(=O)(=O)Nc1ccc(F)c(C(=O)c2c[nH]c3ncc(-c4ccc(Cl)cc4)cc23)c1F + Cc1cccc(N(C)C(=O)C2C(O)CCN2c2nc(C)cc(C(F)(F)F)c2C#N)c1
2. CNCc1ccc(-c2[nH]c3cc(F)cc4c3c2CCNC4=O)cc1 + COC1C(OC(N)=O)C(O)C(Oc2ccc3c(O)c(NC(=O)c4ccc(O)c(CC=C(C)C)c4)c(=O)oc3c2C)OC1(C)C
3. C=CC(=O)N1CCN(c2nc(=O)n(-c3c(C)ccnc3C(C)C)c3nc(-c4c(O)cccc4F)c(F)cc23)C(C)C1 (stereo not given) + Nc1ccc(C#CCN(C(=O)Cc2ncc(C(F)(F)F)cc2C(F)(F)F)c2ccc(F)cc2)nn1

[reply]
1: 76.4; 2: 83.7; 3: 96.6

----------
tested on: 817829-284-R-J1-PDC complex spheroid viability; assay: Anticancer human tumor 817829-284-R-J1-PDC cell line growth inhibition [POLQ]; conditions: second compound 0.316 µM; first compound 0.0316 µM; stronger effect = lower value;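 note: spheroids exposed to compounds for 7 days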;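 for viability, T/C: 100% = DMSO vehicle-treated spheroids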
# TRUE = viability, T/C below 70% (exclusive); FALSE = viability, T/C at/above 70%

[ask] Quick check: viability, T/C of O=c1[nH]cc(F)c(=O)[nH]1 + Cc1cccc(N(C)C(=O)C2C(O)CCN2c2nc(C)cc(C(F)(F)F)c2C#N)c1 under 70%?
[reply] FALSE

[ask] Quick check: viability, T/C of COc1cccc2c1C(=O)c1c(O)c3c(c(O)c1C2=O)CC(O)(C(=O)CO)CC3OC1CC(N)C(O)C(C)O1 (stereo not given) + Cc1cccc(N(C)C(=O)C2C(O)CCN2c2nc(C)cc(C(F)(F)F)c2C#N)c1 under 70%?
[reply] TRUE

Here's the next entry for you.
[ask] Quick check: viability, T/C of C=CCn1c(=O)c2cnc(Nc3ccc(N4CCN(C)CC4)cc3)nc2n1-c1cccc(C(C)(C)O)n1 + COC1C(OC(N)=O)C(O)C(Oc2ccc3c(O)c(NC(=O)c4ccc(O)c(CC=C(C)C)c4)c(=O)oc3c2C)OC1(C)C under 70%?
[reply] FALSE

----------
test system: 817829-284-R-J1-PDC complex spheroid viability; experiment: Anticancer human tumor 817829-284-R-J1-PDC cell line growth inhibition [POLQ]; conditions: curve of first compound; second compound 0.0316 µM;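 note: spheroids exposed to compounds for 7 days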
value_type: pIC50
Give bare numbers, as −log10 of the molar value.

[ask] # pIC50 lookup, item CNCc1ccc(-c2[nH]c3cc(F)cc4c3c2CCNC4=O)cc1 + Cc1cccc(N(C)C(=O)C2C(O)CCN2c2nc(C)cc(C(F)(F)F)c2C#N)c1
[reply] 5.65

[ask] # pIC50 lookup, item COc1cccc(OCCCN)c1-c1cc(Nc2cnc(C#N)cn2)n[nH]1 + Nc1ccc(C#CCN(C(=O)Cc2ncc(C(F)(F)F)cc2C(F)(F)F)c2ccc(F)cc2)nn1
[reply] 8.26

Let's switch to this compound now.
[ask] # pIC50 lookup, item Cn1ncnc1[C@H]1c2n[nH]c(=O)c3cc(F)cc(c23)N[C@@H]1c1ccc(F)cc1 + COC1C(OC(N)=O)C(O)C(Oc2ccc3c(O)c(NC(=O)c4ccc(O)c(CC=C(C)C)c4)c(=O)oc3c2C)OC1(C)C
[reply] 7.51
